- subject of test: Renin (Homo sapiens)
- Sequence (P00797 67-406): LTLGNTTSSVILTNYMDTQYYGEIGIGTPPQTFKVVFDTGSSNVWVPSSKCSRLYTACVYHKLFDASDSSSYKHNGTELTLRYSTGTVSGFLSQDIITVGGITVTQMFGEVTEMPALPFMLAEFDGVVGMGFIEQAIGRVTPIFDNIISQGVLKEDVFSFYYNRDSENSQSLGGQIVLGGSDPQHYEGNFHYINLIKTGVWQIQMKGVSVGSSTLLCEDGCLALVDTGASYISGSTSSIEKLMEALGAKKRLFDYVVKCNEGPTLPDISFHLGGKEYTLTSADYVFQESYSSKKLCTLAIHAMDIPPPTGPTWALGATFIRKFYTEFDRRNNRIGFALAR
- assay name: In-vitro renin inhibition assay (modified Cayman renin inhibitor screening assay, fluorescence)
- Assay type: biochemical
- Parameters: purchased Cayman 10006270
- condition info: compound concentration 1 μM; 37° C., 30 mins; read-out: Renin inhibition (percent inhibition of renin activity) at 1 μM
Structures can show the parent of a compound that is named as a salt.
parameter measured: inhibition at 1 µM (%)

INSERT INTO results (compound, parameter_measured, observed_value) VALUES
  ('Cc1cc(Cl)c(OCCOc2ccc(CC(CN)C(=O)N3CCCc4ccccc43)cc2)c(Cl)c1 (stereo not shown)', 'inhibition at 1 µM', 97.3),
  ('NCC(Cc1ccc(OCCOc2c(Cl)cccc2Cl)cc1)C(=O)N1CCCc2cc(C(F)(F)F)ccc21 (stereo not shown) [Example 31, hydrochloride]', 'inhibition at 1 µM', 102),
  ('Cc1cc(Cl)c(OCCOc2ccc(CC(CN)C(=O)N3CCCCC3)cc2)c(Cl)c1 (stereo not shown)', 'inhibition at 1 µM', 90.7),
  ('COc1ccc2c(c1)CCCN2C(=O)C(CN)Cc1ccc(OCCOc2c(Cl)cc(C)cc2Cl)cc1 (stereo not shown)', 'inhibition at 1 µM', 96.5),
  ('Cc1cc(Cl)c(OCCOc2ccc(CC(CN)C(=O)N3CCCCC3)cn2)c(Cl)c1 (stereo not shown)', 'inhibition at 1 µM', 82.5),
  ('Cc1cc(Cl)c(OCCOc2ccc(CC(CN)C(=O)N3CCCc4cc(Br)ccc43)cc2)c(Cl)c1 (stereo not shown)', 'inhibition at 1 µM', 86.5),
  ('Cc1cc(Cl)c(OCCOc2ccc(CC(CN)C(=O)N3CCCc4cc(Cl)ccc43)cc2)c(Cl)c1 (stereo not shown)', 'inhibition at 1 µM', 79.6);

----------
- subject of test: UniProt:P00797
- assay name: In-vitro renin inhibition assay (modified Cayman renin inhibitor screening assay, fluorescence)
- Assay type: biochemical
- Set-up: purchased Cayman 10006270
- condition info: compound concentration 0.1 μM; 37° C., 30 mins; read-out: Renin inhibition (percent inhibition of renin activity) at 0.1 μM
- Description: In-Vitro Renin Inhibition Assay The enzymatic in vitro assay was performed in 96 well polypropylene plate (Nunc), using a modified Renin inhibitor screening assay protocol (Cayman, cat no: 10006270). […] The entire incubation mixture were incubated at 37° C. for 30 mins and the fluorescence was read in kinetic mode using excitation wavelengths of 335-345 nm and emission wavelengths of 485-510 nm. Enzyme inhibition was determined by percent inhibition of renin activity.
Counter-ions that a name gives are not always drawn.
parameter measured: inhibition at 0.1 µM (%)

INSERT INTO assay_data (compound, subject_of_test, observed_value) VALUES
  ('Cc1cc(Cl)c(OCCOc2ccc(CC(CN)C(=O)N3CCCc4ccccc43)cc2)c(Cl)c1 (centres unmarked)', 'UniProt:P00797', 90.5),
  ('Cc1cc(Cl)c(OCCOc2ccc(CC(CN)C(=O)N3CCOCC3)cc2)c(Cl)c1 (centres unmarked) [Example 25, hydrochloride]', 'UniProt:P00797', 45.1),
  ('COCCCOc1ccc2c(c1)CCCN2C(=O)C(CN)Cc1ccc(OCCOc2c(Cl)cc(C)cc2Cl)cc1 (centres unmarked)', 'UniProt:P00797', 90.7),
  ('NCC(Cc1ccc(OCCOc2ccc(Cl)cc2F)cc1)C(=O)N1CCCc2cc(F)ccc21 (centres unmarked) [Example 39, hydrochloride]', 'UniProt:P00797', 36.3),
  ('NCC(Cc1ccc(OCCOc2ccc(F)cc2F)cc1)C(=O)N1CCCc2cc(C(F)(F)F)ccc21 (centres unmarked) [Example 36, hydrochloride]', 'UniProt:P00797', 45);
